Experiment: Equilibrium distribution coefficients in organic solvent/pH 7.4 systems, shake-flask method
Assay type: physicochemical
Conditions: OctOH (octanol)/buffer pH 7.4, pH 7.4, OctOH/pH 7.4, 303.15 K; read-out: log DappOctOH/pH7.4 (logD) (converted)
measured metric: logD at 24 h
One number for each entry.

For COc1ccc2c3c([nH]c2c1)C(C)=NCC3 [HML, Harmaline] , write its logD at 24 h.
1.07

###

Assay: Equilibrium distribution coefficients in organic solvent/pH 7.4 systems, shake-flask method
Format: physicochemical
Conditions: OctOH (octanol)/buffer pH 7.4, pH 7.4, OctOH/pH 7.4, 308.15 K; read-out: log DappOctOH/pH7.4 (logD) (converted)
measured metric: logD at 24 h
Answers are plain numbers.

For COc1ccc2c3c([nH]c2c1)C(C)=NCC3 [HML, Harmaline] , write its logD at 24 h.
1.17

Reference for the values: paper PMC12844998
